Target: T1, GLP-1R (INS1e assay) (UniProt P32301 22-463, limits assumed)
T1 sequence (looked up): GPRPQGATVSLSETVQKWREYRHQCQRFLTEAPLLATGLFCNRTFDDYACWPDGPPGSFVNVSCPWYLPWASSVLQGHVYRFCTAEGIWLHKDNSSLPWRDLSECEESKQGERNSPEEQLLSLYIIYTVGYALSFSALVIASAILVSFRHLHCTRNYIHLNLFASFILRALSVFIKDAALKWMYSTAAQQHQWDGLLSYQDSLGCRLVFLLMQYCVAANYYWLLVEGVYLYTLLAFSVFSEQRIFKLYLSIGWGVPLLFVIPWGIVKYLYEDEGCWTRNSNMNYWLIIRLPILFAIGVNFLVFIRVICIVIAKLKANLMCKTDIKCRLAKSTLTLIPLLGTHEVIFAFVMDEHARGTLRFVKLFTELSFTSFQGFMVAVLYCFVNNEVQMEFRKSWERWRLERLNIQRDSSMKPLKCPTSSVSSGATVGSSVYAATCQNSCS
Experiment: cell-based or functional assay
Starred links: 1 amine or outer side, 2 acyl side, 3 side chain; linkers in the order of their positions; H or OH if unused. Non-standard residues stand in square brackets, D forms with d. Groups on a side chain read outwards from the residue. Primed or numbered codes have the meaning given here. No end group written: not given here. *: point of attachment. Dodecanoyl(12-OPh(4-COOH)) = O=C(O)c1ccc(OCCCCCCCCCCCC(=O)*)cc1; Dodecylbenzoate = dodecylbenzoyl lipid group; γGlu = O=C(O)[C@H](CCC(=O)[*:2])N[*:1]; Stearoyl = CCCCCCCCCCCCCCCCCC(=O)*; αMeF = C[C@](N)(Cc1ccccc1)C(=O)O; αMeK = C[C@](N)(CCCCN)C(=O)O; Lauroyl = CCCCCCCCCCCC(=O)*; αMeS = C[C@](N)(CO)C(=O)O; PEG2′ = not defined here; Aib = CC(C)(N)C(=O)O; Ahx = NCCCCCC(=O)O
measure name: INS1e assay EC50 GLP-1 R n2
Kindly write the number and append the unit.

Field: example entries. Status: answers known.
[
  {
    "binder": "H[Aib]EGS[αMeF]TSDV[αMeS]S[αMeF]LEGEAA[αMeK]E[αMeF]IA[αMeF]VK([PEG2′-PEG2′-γGlu-Stearoyl])[αMeK]GG-NH2 [SEQ ID NO 102]",
    "INS1e assay EC50 GLP-1 R n2": "2.89 nM"
  },
  {
    "binder": "H[Aib]EGS[αMeF]TSDV[αMeS]SYLEGEAAK([PEG2′-PEG2′-PEG2′-Stearoyl])E[αMeF]IA[αMeF]VV[αMeK]GG-NH2 [SEQ ID NO 53]",
    "INS1e assay EC50 GLP-1 R n2": "0.00815 nM"
  },
  {
    "binder": "H[Aib]EGS[αMeF]TSDV[αMeS]SYLEGEAAK([PEG2′-PEG2′-γGlu-Stearoyl])E[αMeF]IA[αMeF]VV[αMeK]GG-NH2 [SEQ ID NO 47]",
    "INS1e assay EC50 GLP-1 R n2": "12.2 nM"
  },
  {
    "binder": "H[Aib]EGS[αMeF]TSDV[αMeS]S[αMeF]LEGEAAK([PEG2′-PEG2′-PEG2′-Stearoyl])E[αMeF]IA[αMeF]VV[αMeK]GG-NH2 [SEQ ID NO 154]",
    "INS1e assay EC50 GLP-1 R n2": "0.0171 nM"
  },
  {
    "binder": "H[Aib]EGS[αMeF]TSDV[αMeS]S[αMeF]LEGEAAK([PEG2′-PEG2′-γGlu-Stearoyl])E[αMeF]IA[αMeF]VV[αMeK]GG-NH2 [SEQ ID NO 3]",
    "INS1e assay EC50 GLP-1 R n2": "3.78 nM"
  },
  {
    "binder": "H[Aib]EGS[αMeF]TSDV[αMeS]S[αMeF]LEGEAA[αMeK]E[αMeF]IA[αMeF]VVK([PEG2′-Lauroyl])GG-NH2 [SEQ ID NO 170]",
    "INS1e assay EC50 GLP-1 R n2": "0.376 nM"
  },
  {
    "binder": "H[Aib]EGS[αMeF]TSDV[αMeS]S[αMeF]LEGEAA[αMeK]E[αMeF]IA[αMeF]VVK([PEG2′-PEG2′-PEG2′-Stearoyl])GG-NH2 [SEQ ID NO 199]",
    "INS1e assay EC50 GLP-1 R n2": "2.13 nM"
  },
  {
    "binder": "H[Aib]EGS[αMeF]TSDV[αMeS]S[αMeF]LEGEAA[αMeK]EK([PEG2′-PEG2′-γGlu-Stearoyl])IA[αMeF]VV[αMeK]GG-NH2 [SEQ ID NO 107]",
    "INS1e assay EC50 GLP-1 R n2": "11.7 nM"
  }
]

State the recorded INS1e assay EC50 GLP-1 R n2 for this entry: H[Aib]EGS[αMeF]TSDV[αMeS]K([PEG2′-PEG2′-γGlu-Stearoyl])[αMeF]LEGEAA[αMeK]E[αMeF]IA[αMeF]VV[αMeK]GG-NH2 [SEQ ID NO 117]
1.67 nM

State the recorded INS1e assay EC50 GLP-1 R n2 for this entry: H[Aib]EGS[αMeF]TSDV[αMeS]S[αMeF]LEGEAAK([PEG2′-Dodecanoyl(12-OPh(4-COOH))])E[αMeF]IA[αMeF]VV[αMeK]GG-NH2 [SEQ ID NO 143]
0.0227 nM

State the recorded INS1e assay EC50 GLP-1 R n2 for this entry: H[Aib]EGS[αMeF]TSDV[αMeS]S[αMeF]LEGEAA[Aib]EFIK([PEG2′-PEG2′-γGlu-Stearoyl])WVVEGG-NH2 [SEQ ID NO 67]
18.1 nM

State the recorded INS1e assay EC50 GLP-1 R n2 for this entry: H[Aib]EGS[αMeF]TSDVSS[αMeF]LEGEAAK([PEG2′-PEG2′-γGlu-Stearoyl])E[αMeF]IA[αMeF]VV[αMeK]GG-NH2 [SEQ ID NO 46]
83.4 nM

State the recorded INS1e assay EC50 GLP-1 R n2 for this entry: H[Aib]EGS[αMeF]TSDV[αMeS]S[αMeF]LEGEAA[αMeK]E[αMeF]IA[αMeF]VVK([Ahx-Ahx-Dodecylbenzoate])GG-NH2 [SEQ ID NO 177]
0.755 nM
